assaySystem: human ALK2 R206H (Homo sapiens, UniProt Q04771, R206H)
Construct: expressed in transfected cells; host or cells: HEK293 (ATCC CRL1573), lentivirus transduction, blasticidin selection
Sequence (Q04771 21-509 R206H): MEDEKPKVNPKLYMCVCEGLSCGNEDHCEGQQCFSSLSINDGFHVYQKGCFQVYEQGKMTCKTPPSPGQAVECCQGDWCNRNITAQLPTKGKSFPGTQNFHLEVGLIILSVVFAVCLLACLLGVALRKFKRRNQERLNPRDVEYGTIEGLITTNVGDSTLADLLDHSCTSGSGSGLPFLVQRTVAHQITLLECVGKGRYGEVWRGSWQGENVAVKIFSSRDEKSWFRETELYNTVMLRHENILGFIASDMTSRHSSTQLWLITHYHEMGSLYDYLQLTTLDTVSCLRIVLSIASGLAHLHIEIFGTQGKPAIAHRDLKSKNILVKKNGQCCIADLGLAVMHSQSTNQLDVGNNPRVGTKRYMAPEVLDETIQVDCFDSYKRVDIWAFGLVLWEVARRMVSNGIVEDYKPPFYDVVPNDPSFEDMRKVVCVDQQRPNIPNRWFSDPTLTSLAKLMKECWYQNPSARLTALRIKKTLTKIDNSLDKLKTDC
protocol: Cell-based ALK2-R206H cell activity assay (Smad1-Ser463/Ser465 phosphorylation by AlphaLISA in HEK293-ALK2-R206H cells)
measurementParameters: read-out: Cell Line (Cell Assay IC50)
IC50 values by entry
assayReadout: IC50

{"molecule": "CCN1CC2(C1)CN(c1ccc(-c3cc4c(N5CCN(C(=O)N6CC(C#N)C6)CC5)ccnn4c3)cc1)C2", "assayReadout": "IC50", "reportedMeasurement": "100 to 500 nM"}
{"molecule": "CCOC1(c2ccc(-c3cc4c(N5CCN(C(=O)C6CC6)CC5)ccnn4c3)cc2)CCNCC1", "assayReadout": "IC50", "reportedMeasurement": "< 100 nM"}
{"molecule": "COC1(c2ccc(-c3cc4c(N5CCN(C(=O)OC6COC6)CC5)ccnn4c3)nc2)CCNCC1", "assayReadout": "IC50", "reportedMeasurement": "< 100 nM"}
{"molecule": "CC(C)N1CCC(c2ccc(-c3cc4c(N5CCN(C(=O)OC(CO)CO)CC5)ccnn4c3)cc2)CC1", "assayReadout": "IC50", "reportedMeasurement": "100 to 500 nM"}
{"molecule": "O=C(C1CC1)N1CCN(c2ccnn3cc(-c4ccc(C5CN6CCSC6=N5)cc4)cc23)CC1 (stereo not drawn)", "assayReadout": "IC50", "reportedMeasurement": "< 100 nM"}
{"molecule": "CC(C)NC(=O)N1CCN(c2ccnn3cc(-c4ccc(C5(C#N)CCNCC5)cc4)cc23)CC1", "assayReadout": "IC50", "reportedMeasurement": "< 100 nM"}
{"molecule": "CC(C)N1CCC[C@@H](c2ccc(-c3cc4c(N5CCN(C(=O)OC6COC6)CC5)ccnn4c3)cc2)C1", "assayReadout": "IC50", "reportedMeasurement": "< 100 nM"}
{"molecule": "CCN1CCC(c2ccc(-c3cc4c(N5CCN(C(=O)[C@H]6C[C@](C)(O)C6)CC5)ccnn4c3)cc2)CC1", "assayReadout": "IC50", "reportedMeasurement": "< 100 nM"}
{"molecule": "COC1(c2ccc(-c3cc4c(N5CCN(C(=O)NC(C)C)CC5)ccnn4c3)cc2)CCN([C@@H](C)COC(F)F)CC1", "assayReadout": "IC50", "reportedMeasurement": "< 100 nM"}
{"molecule": "CCOC1(c2ccc(-c3cc4c(N5CCN(C(=O)OC6COC6)CC5)ccnn4c3)nc2)CCOCC1", "assayReadout": "IC50", "reportedMeasurement": "< 100 nM"}
{"molecule": "O=C(C1CC1)N1CCN(c2ccnn3cc(-c4ccc(N5CCNCC5)nc4)cc23)CC1", "assayReadout": "IC50", "reportedMeasurement": "100 to 500 nM"}
{"molecule": "COC1(c2ccc(-c3cc4c(N5CCN(C(=O)[C@H]6C[C@@H]6F)CC5)ccnn4c3)cc2)CCN(C(C)C)CC1", "assayReadout": "IC50", "reportedMeasurement": "< 100 nM"}
{"molecule": "CCNC(=O)N1CCN(c2ccnn3cc(-c4ccc([C@@]5(O)CCCN(C(C)C)C5)cn4)cc23)CC1", "assayReadout": "IC50", "reportedMeasurement": "< 100 nM"}
{"molecule": "CCOC(=O)N1CCN(c2ccnn3cc(-c4ccc([C@H]5CCN(C(C)C)C5)cc4)cc23)CC1", "assayReadout": "IC50", "reportedMeasurement": "< 100 nM"}
{"molecule": "CCNC(=O)N1CCN(c2ccnn3cc(-c4ccc(C5CCN(C(C)C)CC5)c(F)c4)cc23)CC1", "assayReadout": "IC50", "reportedMeasurement": "< 100 nM"}
